Items are presented alongside their recorded GI50.
Tested on: SF-268
Assay Summary: NCI tumour cell line growth inhibition, 48 h
Activity calls are given as the source filed them. Cut-off read from the data, not from the text of the source: active = GI50 up to about 1.1 µM and inactive = higher.
Recorded Endpoint: GI50

>>> value_measured("COc1ccccc1-c1cc(=O)c2ccccc2[nH]1")
"> 100 µM (inactive)"
>>> value_measured("CCOS(=O)(=O)c1ccc(-c2c3nc(c(-c4ccc(S(=O)(=O)OCC)cc4)c4ccc([nH]4)c(-c4ccc(S(=O)(=O)OCC)cc4)c4nc(c(-c5ccc(S(=O)(=O)OCC)cc5)c5ccc2[nH]5)C=C4)C=C3)cc1")
"> 31.6 µM (inactive)"
>>> value_measured("COC(=O)/C=C1/CCC(C(=O)OC)N1 (centres undefined)")
"> 100 µM (inactive)"
>>> value_measured("CC(C)CC(=O)NC(NC(C)C)(C(F)(F)F)C(F)(F)F")
"> 100 µM (inactive)"
>>> value_measured("Cc1csc2c(=O)n(COCc3ccccc3)c(=O)[nH]c12")
"> 100 µM (inactive)"
>>> value_measured("COC(=O)C1CCC(=O)N1C(c1cc(OC)c(OC)c(OC)c1)c1cccc2ccccc12 (centres undefined)")
"15.3 µM (inactive)"
>>> value_measured("CCC(C)C(Nc1c2ccccc2nc2c(C(=O)NCCN(C)C)cccc12)C(=O)O (centres undefined)")
"13.6 µM (inactive)"
>>> value_measured("CCCCCC(/C=C/C1CCC(=O)C1CC#C[Si](C)(C)C)OCc1ccccc1 (centres undefined)")
"14.3 µM (inactive)"
>>> value_measured("c1ccc(C(NC2=NCCO2)c2ccccc2)cc1")
"> 10 µM (inactive)"
>>> value_measured("CCOC(=O)c1c(N2CCCC2)[nH]c(=O)c(C(c2ccc(OC)cc2)c2c(O)c(C(=O)OCC)c(N3CCCC3)[nH]c2=O)c1O")
"49.5 µM (inactive)"
>>> value_measured("COC(=O)c1cn(CC(O)CCl)nn1 (centres undefined)")
"> 100 µM (inactive)"
>>> value_measured("CCOC(=O)C(=O)Nc1nc2ccc(C)cc2s1")
"> 100 µM (inactive)"
>>> value_measured("CN(C)CCCn1c(-c2cc(C(C)(C)C)c(O)c(C(C)(C)C)c2)cs/c1=N\\c1ccccc1")
"1.85 µM (inactive)"
>>> value_measured("Cc1nc(NC(=S)NC(=O)c2ccc(Cl)c(Cl)c2)sc1C(=O)/C=C/c1ccccc1[N+](=O)[O-]")
"39.4 µM (inactive)"
>>> value_measured("O=C1CCCC2C(O)CCC[C@H]12 (some centres undefined)")
"> 100 µM (inactive)"
>>> value_measured("CC(CC[C@@H](O)C(C)(C)O)C1[C@@H](O)CC2(C)C3CC(O)C4C(C)(C)[C@@H](OC5OC(CO)C(O)C(O)C5O)CC[C@@]45C[C@@]35CC[C@]12C (some centres undefined)")
"> 10 µM (inactive)"
>>> value_measured("Oc1c2c(c(O)c3ccccc13)C1(N=N2)c2ccccc2Oc2ccccc21")
"11.6 µM (inactive)"
>>> value_measured("CCC(=O)Nc1ccc(NS(=O)(=O)c2ccc(Cl)cc2)cc1")
"> 100 µM (inactive)"
>>> value_measured("O=C(O)Cc1cc(F)ccc1C(=O)O")
"> 100 µM (inactive)"
>>> value_measured("N#CC12CC3=C(N=C1NC1=C(CCc4ccccc41)C2)c1ccccc1CC3 (centres undefined)")
"3.3 µM (inactive)"
>>> value_measured("CCCCCCCCCCCCCCCCOC[C@@H](COC(c1ccccc1)(c1ccccc1)c1ccccc1)O[PH](=S)OC (some centres undefined)")
"9.25 µM (inactive)"
>>> value_measured("CCc1cccc(C(C)CC)c1NC(=O)C(=O)C(CC(=O)Nc1ccc(Cl)c(Cl)c1)C(=O)OC (centres undefined)")
"64 µM (inactive)"
>>> value_measured("O=[N+]([O-])c1cccc(Nc2nc(Cl)nc(Cl)n2)c1")
"> 100 µM (inactive)"
>>> value_measured("Nc1ncnc2c1ncn2-c1ccc([N+](=O)[O-])cn1")
"> 100 µM (inactive)"
>>> value_measured("Cn1c2ccccc2c2nc3ccccc3c(Cl)c21")
"> 100 µM (inactive)"
>>> value_measured("O=C(/C=N/O)c1c(-c2ccccc2)[nH]c(-c2ccccc2)c1-c1ccccc1")
"19.3 µM (inactive)"
>>> value_measured("O=[N+]([O-])c1ccc2[nH]c3c(-c4ccccc4)nccc3c2c1")
"25 µM (inactive)"
>>> value_measured("COc1cc2noc(-c3ccccc3)c2cc1OC")
"54 µM (inactive)"
>>> value_measured("CNC1c2ccccc2C(=O)c2cc3c(cc21)OCCOCCOCCOCCO3 (centres undefined)")
"> 100 µM (inactive)"
